# Protocol text: Plasma concentrations of
# Condition notes: CRPS patient, (R,S)-Ket 40 mg/h continuous infusion, morning of Day 3; estimated using the standard curve for (2S,6S); (2R,6R)-hydroxynorketamine
For each entry below, report its Plasma value.
Unit ng/mL implied. Number only.

Query N[C@]1(c2ccccc2Cl)C[C@@H](O)CCC1=O (single isomer, unassigned; peak 4d) [Peak 4d] yields Plasma of 145

// recorded Plasma for N[C@]1(c2ccccc2Cl)CC[C@@H](O)CC1=O (single isomer, unassigned) [Peak 4f] : 141

Per the records, this compound ( NC1(c2ccccc2Cl)CCCC(O)C1=O (single isomer, unassigned; peak 4b) [Peak 4b] ) has Plasma equal to 881

Reported Plasma ( NC1(c2ccccc2Cl)CC(O)CCC1=O (single isomer, unassigned) [Peak 4e] ) = 160

Plasma recorded for this compound, N[C@]1(c2ccccc2Cl)CC[C@H](O)CC1=O (single isomer, unassigned; peak 4c) [Peak 4c] , is 245
